# system: Peroxisome proliferator-activated receptor gamma/Nuclear receptor coactivator 1 (Homo sapiens, UniProt P37231)
# Sequence (P37231 whole entry): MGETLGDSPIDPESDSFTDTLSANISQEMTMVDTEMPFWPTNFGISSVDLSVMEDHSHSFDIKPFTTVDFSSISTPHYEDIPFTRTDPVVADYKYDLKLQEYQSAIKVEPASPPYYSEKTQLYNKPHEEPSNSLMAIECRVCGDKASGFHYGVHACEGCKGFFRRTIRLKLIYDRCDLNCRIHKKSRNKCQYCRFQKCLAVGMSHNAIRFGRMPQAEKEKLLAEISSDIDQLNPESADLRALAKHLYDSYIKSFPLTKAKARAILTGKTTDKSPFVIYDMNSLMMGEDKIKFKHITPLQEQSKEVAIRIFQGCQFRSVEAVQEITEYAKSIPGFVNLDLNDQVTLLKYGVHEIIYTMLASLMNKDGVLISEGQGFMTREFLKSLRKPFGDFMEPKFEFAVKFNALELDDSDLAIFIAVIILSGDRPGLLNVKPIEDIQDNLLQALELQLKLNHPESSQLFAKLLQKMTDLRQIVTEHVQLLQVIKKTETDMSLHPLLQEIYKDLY
# Sequence (Q15788 whole entry, further chain): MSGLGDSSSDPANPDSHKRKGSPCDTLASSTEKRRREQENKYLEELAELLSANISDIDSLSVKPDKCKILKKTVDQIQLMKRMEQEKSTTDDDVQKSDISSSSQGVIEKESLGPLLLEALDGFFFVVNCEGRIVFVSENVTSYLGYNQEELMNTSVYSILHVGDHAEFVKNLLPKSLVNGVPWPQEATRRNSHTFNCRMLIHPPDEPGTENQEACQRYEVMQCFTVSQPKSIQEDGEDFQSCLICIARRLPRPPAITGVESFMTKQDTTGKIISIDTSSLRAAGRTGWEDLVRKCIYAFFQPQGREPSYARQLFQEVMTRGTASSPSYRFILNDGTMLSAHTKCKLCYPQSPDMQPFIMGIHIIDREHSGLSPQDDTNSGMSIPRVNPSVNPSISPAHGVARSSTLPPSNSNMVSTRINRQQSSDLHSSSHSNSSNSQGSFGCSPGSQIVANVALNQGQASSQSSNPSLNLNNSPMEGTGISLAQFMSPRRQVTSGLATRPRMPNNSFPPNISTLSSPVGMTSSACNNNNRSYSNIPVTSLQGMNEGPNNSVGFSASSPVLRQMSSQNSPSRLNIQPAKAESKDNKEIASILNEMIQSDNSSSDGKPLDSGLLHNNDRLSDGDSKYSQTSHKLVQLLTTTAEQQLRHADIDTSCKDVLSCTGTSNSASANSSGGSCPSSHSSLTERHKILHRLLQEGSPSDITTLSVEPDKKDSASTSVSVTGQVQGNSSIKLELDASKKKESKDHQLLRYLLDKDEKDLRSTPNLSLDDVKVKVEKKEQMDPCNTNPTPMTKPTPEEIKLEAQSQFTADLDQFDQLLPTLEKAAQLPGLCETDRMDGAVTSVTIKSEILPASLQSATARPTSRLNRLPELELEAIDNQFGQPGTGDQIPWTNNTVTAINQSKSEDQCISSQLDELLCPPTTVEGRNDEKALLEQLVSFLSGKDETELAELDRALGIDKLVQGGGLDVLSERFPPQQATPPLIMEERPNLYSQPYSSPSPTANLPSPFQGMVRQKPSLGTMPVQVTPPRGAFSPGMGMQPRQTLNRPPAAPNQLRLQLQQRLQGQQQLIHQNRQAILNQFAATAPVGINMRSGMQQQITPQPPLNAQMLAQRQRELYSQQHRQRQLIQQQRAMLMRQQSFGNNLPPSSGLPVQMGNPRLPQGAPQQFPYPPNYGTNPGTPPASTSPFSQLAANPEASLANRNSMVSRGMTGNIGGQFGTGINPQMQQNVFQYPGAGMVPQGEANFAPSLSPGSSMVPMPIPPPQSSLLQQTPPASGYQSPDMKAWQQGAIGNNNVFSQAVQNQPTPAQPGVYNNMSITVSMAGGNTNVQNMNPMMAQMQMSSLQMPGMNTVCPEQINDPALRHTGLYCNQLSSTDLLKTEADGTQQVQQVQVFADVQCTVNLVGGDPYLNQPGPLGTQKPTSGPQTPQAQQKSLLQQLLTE
# protocol_notes: TR-FRET dose response biochemical High Throughput Screening assay for agonists of the steroid receptor coactivator 1 (SRC-1) recruitment by the peroxisome proliferator-activated receptor gamma (PPAR gamma): non-selective agonists. [Related pubchem assays (depositor defined):AID1300, AID1808, AID504735, AID631]
# Type: protein assay
Calls of active or inactive are those of the source.
Hi! Could you answer with just one of these? active, inactive

Illustrative cases are given below, each with its answer.
{"columns": ["molecule", "cat"],
 "data": [
  ["CC(C)COC(=O)CNc1nnc(S)nc1O", "active"],
  ["COc1cccc(C2C(C(=O)c3cc4ccccc4o3)=C(O)C(=O)N2c2cc(C)on2)c1OC (centres undefined)", "inactive"],
  ["COc1ccc(CC(=O)NNC(=O)COc2ccc3ccccc3c2)cc1", "active"]
]}

State the result this test recorded for O=C(CSc1ncnc2c1oc1ccccc12)Nc1cccc(C(F)(F)F)c1 .
inactive

###

// values below are reported AC50
# protocol_notes: Dd2 malaria parasite growth inhibition potency – SYBR Green, dry powder samples, dose response (AID 1159566);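 note: potency for growth inhibition with lower SYBR green DNA signal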
# Type: functional, cell-based
The source made the active and inactive calls.

// below: answered compounds
{"columns": ["mol_smiles", "result"],
 "data": [
  ["C/C=C/c1ccc([C@H]2[C@@H]3CN(C(=O)Nc4ccc(C(F)(F)F)cc4)C[C@H]2N3)cc1", "5420 nM (active)"],
  ["CC(C)NC(=O)N1[C@H](C#N)[C@H](c2ccc(-c3ccc(F)cc3)cc2)[C@H]1CO", "442 nM (active)"],
  ["COc1cccc(NC(=O)N2[C@H](CO)[C@H](c3ccccc3)[C@H]2CNCC(C)C)c1", "974 nM (active)"],
  ["CC(C)(C)[S@@+]([O-])N1Cc2cc(C(=O)N[C@@H]3CCN(Cc4ccccc4)C3)nc(-c3cccc(-c4cccnc4)c3)c2[C@H]1CCO", "2010 nM (active)"],
  ["CN1c2ccc(C#Cc3cccnc3)cc2[C@H]2[C@H](CCN2S(=O)(=O)c2ccc(F)cc2)[C@H]1CO", "1050 nM (active)"]
]}

Next up:
So, COc1ccc(NC(=O)N2CC3(C2)CN(C(=O)C2CCC2)[C@H](CO)c2c3c3ccc(OC)cc3n2C)cc1 ? Its AC50 was 437 nM (active)

###

# system: Prothrombin (Bos taurus, UniProt P00735)
# protocol_notes: thrombin protease inhibitors – biochemical, fluorescence polarization, uHTS hits, dose response (AID 602369)
# Assay type: functional
Active and inactive are the calls of the source.
measured_endpoint: IC50

Reference set (4 entries):
{"columns": ["compound", "result"],
 "data": [
  ["CCCCCCCCCCCCCCCC(O)C[N+](C)(C)CCO (stereo not given)", "45.1 µM (active)"],
  ["N#Cc1c(SCC(=O)Nc2nc3ccc(Br)cc3s2)sc2c(O)cc(=O)[nH]c12", "71.2 µM (active)"],
  ["Cc1ccc(N2C(=O)NC(=O)/C(=C/c3ccoc3)C2=O)cc1", "84.7 µM (active)"],
  ["NC(=O)CC(NC(=O)Cc1ccc(Cl)cc1)c1ccc(NC2CCCC2)c([N+](=O)[O-])c1 (stereo not given)", "38.8 µM (active)"]
]}

Let me check: N#C/C(=C\c1ccc(O)c(O)c1)C(=O)N1CCc2ccccc21 , system Prothrombin (Bos taurus, UniProt P00735), measured IC50 is 45.9 µM (active)

Reference source: ChEMBL document CHEMBL1201862
